Measured Inhibitory activity (% of control), CDK1/cyclinB(h), listed per entry.
biological target: CDK1/cyclinB(h) (Homo sapiens, UniProt P06493); experiment: CDK1/cyclinB(h) kinase assay; type: biochemical; conditions: 3 μM; percent of control kinase activity
Sequence (P06493 whole entry): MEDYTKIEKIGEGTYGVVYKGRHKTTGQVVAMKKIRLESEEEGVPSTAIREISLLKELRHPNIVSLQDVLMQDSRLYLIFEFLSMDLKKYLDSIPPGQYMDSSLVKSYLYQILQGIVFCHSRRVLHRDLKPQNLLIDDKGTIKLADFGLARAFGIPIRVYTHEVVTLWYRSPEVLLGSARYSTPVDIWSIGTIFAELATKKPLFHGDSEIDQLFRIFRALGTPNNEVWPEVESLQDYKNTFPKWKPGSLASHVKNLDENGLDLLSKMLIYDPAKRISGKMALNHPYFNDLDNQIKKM
Sequence (P14635 whole entry partner): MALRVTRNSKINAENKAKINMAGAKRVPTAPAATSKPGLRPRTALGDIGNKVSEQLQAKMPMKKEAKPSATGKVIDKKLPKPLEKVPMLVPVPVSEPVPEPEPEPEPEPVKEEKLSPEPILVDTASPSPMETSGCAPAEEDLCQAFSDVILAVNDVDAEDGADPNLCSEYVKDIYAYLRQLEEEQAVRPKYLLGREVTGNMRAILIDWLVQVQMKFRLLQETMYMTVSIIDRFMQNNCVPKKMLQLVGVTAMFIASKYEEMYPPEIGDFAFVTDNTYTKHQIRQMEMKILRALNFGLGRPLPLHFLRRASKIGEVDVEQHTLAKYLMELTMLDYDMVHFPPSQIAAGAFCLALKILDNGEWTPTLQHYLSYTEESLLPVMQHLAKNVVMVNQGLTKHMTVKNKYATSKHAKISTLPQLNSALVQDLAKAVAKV

Please review the entries below; each comes with its answer.
* COc1ccc2cc(-c3n[nH]c4ccc(-c5n[nH]c(CN6CCOCC6)n5)cc34)ccc2c1 | 2 % of control
* CC(C)(C)Cc1nc(-c2ccc3[nH]nc(-c4ccc5cc(OCc6ccccn6)ccc5c4)c3c2)n[nH]1 | 1 % of control
* CCN1CCC[C@H]1COc1ccc2cc(-c3n[nH]c4ccc(-c5nc(CC(C)(C)C)n[nH]5)cc34)ccc2c1 | 1 % of control
* O=C(NC1CCCC1)c1cccc(-c2n[nH]c3ccc(-c4nc[nH]n4)cc23)c1 [CC007, reference compound] | 26 % of control
* Fc1ccc(-c2n[nH]c3ccc(-c4n[nH]c(C5CCCC5)n4)cc23)cc1 [CC006, reference compound] | 3 % of control

query: Answer with the recorded Inhibitory activity (% of control), CDK1/cyclinB(h) of `CC(C)Cc1nc(-c2ccc3[nH]nc(-c4ccc5cc(OCCN6CCCC6)ccc5c4)c3c2)n[nH]1` only.
result: 2 % of control

* * *

biological target: UniProt O15530; assay: PDK1(h) kinase assay; format: biochemical; details: 3 μM; percent of control kinase activity
Sequence (O15530 whole entry): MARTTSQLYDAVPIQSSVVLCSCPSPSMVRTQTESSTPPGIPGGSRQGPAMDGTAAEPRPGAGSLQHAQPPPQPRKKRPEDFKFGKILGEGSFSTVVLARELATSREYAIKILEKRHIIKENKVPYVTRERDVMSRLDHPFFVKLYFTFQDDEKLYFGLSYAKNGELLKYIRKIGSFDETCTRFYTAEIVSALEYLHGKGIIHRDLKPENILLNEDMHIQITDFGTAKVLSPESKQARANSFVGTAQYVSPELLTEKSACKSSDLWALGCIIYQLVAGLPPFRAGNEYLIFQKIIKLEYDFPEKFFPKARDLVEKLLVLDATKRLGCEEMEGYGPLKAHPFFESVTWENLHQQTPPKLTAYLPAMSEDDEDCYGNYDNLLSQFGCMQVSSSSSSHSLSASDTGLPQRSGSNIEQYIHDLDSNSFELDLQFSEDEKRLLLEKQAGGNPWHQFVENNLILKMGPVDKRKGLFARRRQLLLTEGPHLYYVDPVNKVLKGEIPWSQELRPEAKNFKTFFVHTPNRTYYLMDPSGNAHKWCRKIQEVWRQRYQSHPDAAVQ
MEASURE NAME: Inhibitory activity (% of control), PDK1(h)

Consider the following illustrative entries.
• O=C(NC1CCCC1)c1cccc(-c2n[nH]c3ccc(-c4nc[nH]n4)cc23)c1 [CC007, reference compound] = 97 % of control
• CC(C)(C)Cc1nc(-c2ccc3[nH]nc(-c4ccc5cc(OCc6ccccn6)ccc5c4)c3c2)n[nH]1 = 70 % of control
• CC(C)Cc1nc(-c2ccc3[nH]nc(-c4ccc5cc(OCCN6CCCC6)ccc5c4)c3c2)n[nH]1 = 58 % of control

query: Please list Inhibitory activity (% of control), PDK1(h) recorded for the molecule `CCN1CCC[C@H]1COc1ccc2cc(-c3n[nH]c4ccc(-c5nc(CC(C)(C)C)n[nH]5)cc34)ccc2c1`
result: 59 % of control

query: Indicate the recorded Inhibitory activity (% of control), PDK1(h) value for this molecule: `COc1ccc2cc(-c3n[nH]c4ccc(-c5n[nH]c(CN6CCOCC6)n5)cc34)ccc2c1`
result: 59 % of control

query: Report measured Inhibitory activity (% of control), PDK1(h); entry is Fc1ccc(-c2n[nH]c3ccc(-c4n[nH]c(C5CCCC5)n4)cc23)cc1 [CC006, reference compound]
result: 43 % of control

* * *

# Inhibitory activity (% of control), Lyn(h) per record follows
molecular target: UniProt P07948; assay: Lyn(h) kinase assay; assay type: biochemical; settings: 3 μM; percent of control kinase activity
Sequence (P07948 2-512 limits assumed): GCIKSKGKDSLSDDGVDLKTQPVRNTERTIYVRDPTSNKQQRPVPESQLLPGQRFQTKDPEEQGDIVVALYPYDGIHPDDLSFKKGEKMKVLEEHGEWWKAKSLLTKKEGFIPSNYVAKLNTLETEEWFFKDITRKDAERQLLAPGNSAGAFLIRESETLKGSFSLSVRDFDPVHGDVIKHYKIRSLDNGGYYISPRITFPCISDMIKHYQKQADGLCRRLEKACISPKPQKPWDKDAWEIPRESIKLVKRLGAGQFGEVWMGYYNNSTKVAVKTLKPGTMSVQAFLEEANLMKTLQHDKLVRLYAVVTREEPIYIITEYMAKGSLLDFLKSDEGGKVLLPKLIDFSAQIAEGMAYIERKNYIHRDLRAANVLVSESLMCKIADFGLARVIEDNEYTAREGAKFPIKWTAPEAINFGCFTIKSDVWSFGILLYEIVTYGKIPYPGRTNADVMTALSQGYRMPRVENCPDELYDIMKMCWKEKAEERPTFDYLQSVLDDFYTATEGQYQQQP

query: Given the compound CCN1CCC[C@H]1COc1ccc2cc(-c3n[nH]c4ccc(-c5nc(CC(C)(C)C)n[nH]5)cc34)ccc2c1 [CC005] , write its reported Inhibitory activity (% of control), Lyn(h).
result: 2 % of control

* * *

This listing pairs compounds with measured Inhibitory activity (% of control), CDK3/cyclinE(h).
Biological target: CDK3/cyclinE(h) (Homo sapiens)
Sequence (Q00526 whole entry): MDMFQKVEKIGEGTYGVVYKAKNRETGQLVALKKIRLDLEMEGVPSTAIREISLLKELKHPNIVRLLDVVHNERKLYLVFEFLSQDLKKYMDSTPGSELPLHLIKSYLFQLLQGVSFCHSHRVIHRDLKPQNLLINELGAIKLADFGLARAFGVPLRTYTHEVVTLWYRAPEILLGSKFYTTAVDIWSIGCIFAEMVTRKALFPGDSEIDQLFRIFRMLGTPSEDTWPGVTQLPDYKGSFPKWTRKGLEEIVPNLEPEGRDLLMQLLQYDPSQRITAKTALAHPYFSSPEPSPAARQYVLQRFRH
Sequence (P24864 whole entry partner): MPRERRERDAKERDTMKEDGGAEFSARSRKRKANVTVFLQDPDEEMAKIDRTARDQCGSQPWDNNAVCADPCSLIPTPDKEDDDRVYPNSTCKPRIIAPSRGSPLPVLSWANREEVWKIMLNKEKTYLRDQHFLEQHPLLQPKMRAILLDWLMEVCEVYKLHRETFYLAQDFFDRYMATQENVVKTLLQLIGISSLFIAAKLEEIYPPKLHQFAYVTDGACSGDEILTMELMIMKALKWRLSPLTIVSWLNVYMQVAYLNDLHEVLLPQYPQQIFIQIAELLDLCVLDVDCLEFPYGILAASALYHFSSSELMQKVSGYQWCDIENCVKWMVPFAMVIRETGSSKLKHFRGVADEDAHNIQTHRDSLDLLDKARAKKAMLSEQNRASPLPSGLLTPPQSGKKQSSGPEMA
Assay: CDK3/cyclinE(h) kinase assay
Type: biochemical
Conditions: 3 μM; percent of control kinase activity
Method: Six compounds (presumptive single agents) were tested against a panel of 50 kinases. The results are presented in Table 2; numbers for each kinase indicate the percent of control kinase activity in the presence of a 3μM concentration of the indicated agent. Agents that target two or more different kinases are useful in the methods of the invention as described elsewhere herein. […]

query: State its Inhibitory activity (% of control), CDK3/cyclinE(h) for this compound: `CCN1CCC[C@H]1COc1ccc2cc(-c3n[nH]c4ccc(-c5nc(CC(C)(C)C)n[nH]5)cc34)ccc2c1`
result: 25 % of control

query: Answer with the recorded Inhibitory activity (% of control), CDK3/cyclinE(h) of `COc1ccc2cc(-c3n[nH]c4ccc(-c5n[nH]c(CN6CCOCC6)n5)cc34)ccc2c1` only.
result: 31 % of control

query: Report measured Inhibitory activity (% of control), CDK3/cyclinE(h); entry is `CC(C)Cc1nc(-c2ccc3[nH]nc(-c4ccc5cc(OCCN6CCCC6)ccc5c4)c3c2)n[nH]1`
result: 36 % of control

query: Quick one: give measured Inhibitory activity (% of control), CDK3/cyclinE(h) for `CC(C)(C)Cc1nc(-c2ccc3[nH]nc(-c4ccc5cc(OCc6ccccn6)ccc5c4)c3c2)n[nH]1`
result: 39 % of control

query: Return Inhibitory activity (% of control), CDK3/cyclinE(h) (reported value) for this compound: O=C(NC1CCCC1)c1cccc(-c2n[nH]c3ccc(-c4nc[nH]n4)cc23)c1 [CC007, reference compound]
result: 73 % of control

query: Consider the compound Fc1ccc(-c2n[nH]c3ccc(-c4n[nH]c(C5CCCC5)n4)cc23)cc1 [CC006, reference compound] . State its measured Inhibitory activity (% of control), CDK3/cyclinE(h).
result: 15 % of control

* * *

Below, each entry is listed alongside its reported Inhibitory activity (% of control), CDK5/p35(h).
target: CDK5/p35(h) (Homo sapiens); assay: CDK5/p35(h) kinase assay; assay type: biochemical; details: 3 μM; percent of control kinase activity
Sequence (Q00535 whole entry): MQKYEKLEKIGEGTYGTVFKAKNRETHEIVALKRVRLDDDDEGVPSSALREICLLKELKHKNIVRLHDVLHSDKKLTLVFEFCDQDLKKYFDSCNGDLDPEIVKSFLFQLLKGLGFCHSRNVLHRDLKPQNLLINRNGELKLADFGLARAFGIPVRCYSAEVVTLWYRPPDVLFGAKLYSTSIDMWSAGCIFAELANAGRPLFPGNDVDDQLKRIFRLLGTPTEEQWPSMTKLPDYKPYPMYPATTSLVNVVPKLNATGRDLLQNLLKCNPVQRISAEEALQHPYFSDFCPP
Sequence (Q15078 whole entry partner): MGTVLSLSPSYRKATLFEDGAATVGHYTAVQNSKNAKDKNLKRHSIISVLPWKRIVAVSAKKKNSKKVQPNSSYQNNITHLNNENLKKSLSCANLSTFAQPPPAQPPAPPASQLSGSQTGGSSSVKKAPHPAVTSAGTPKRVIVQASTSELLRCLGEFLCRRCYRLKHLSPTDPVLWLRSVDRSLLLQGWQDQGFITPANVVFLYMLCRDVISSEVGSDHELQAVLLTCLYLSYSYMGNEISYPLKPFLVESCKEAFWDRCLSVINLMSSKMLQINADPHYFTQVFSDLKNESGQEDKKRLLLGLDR

query: Write Inhibitory activity (% of control), CDK5/p35(h) of Fc1ccc(-c2n[nH]c3ccc(-c4n[nH]c(C5CCCC5)n4)cc23)cc1 [CC006, reference compound] ; system used: CDK5/p35(h) (Homo sapiens)
result: 12 % of control

* * *

biological target: Lck(h) (Homo sapiens, UniProt P06239); assay: Lck(h) kinase assay; assay type: biochemical; settings: 3 μM; percent of control kinase activity
Sequence (P06239 whole entry): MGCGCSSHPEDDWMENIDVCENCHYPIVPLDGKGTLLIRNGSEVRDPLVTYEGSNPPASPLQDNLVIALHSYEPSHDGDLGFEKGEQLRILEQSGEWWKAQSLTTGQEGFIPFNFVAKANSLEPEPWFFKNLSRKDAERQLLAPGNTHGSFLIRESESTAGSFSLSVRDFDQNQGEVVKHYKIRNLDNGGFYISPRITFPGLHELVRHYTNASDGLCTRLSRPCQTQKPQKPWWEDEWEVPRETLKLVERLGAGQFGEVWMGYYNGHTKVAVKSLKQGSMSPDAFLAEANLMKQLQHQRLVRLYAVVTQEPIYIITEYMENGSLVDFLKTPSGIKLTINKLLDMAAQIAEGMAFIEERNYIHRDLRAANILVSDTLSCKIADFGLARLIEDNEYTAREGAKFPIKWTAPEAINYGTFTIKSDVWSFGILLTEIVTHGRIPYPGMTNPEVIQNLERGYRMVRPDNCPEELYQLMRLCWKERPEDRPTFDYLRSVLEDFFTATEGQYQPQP
MEASURE NAME: Inhibitory activity (% of control), Lck(h)

Use the examples below as a reference point.
• Fc1ccc(-c2n[nH]c3ccc(-c4n[nH]c(C5CCCC5)n4)cc23)cc1 [CC006, reference compound] = 43 % of control
• COc1ccc2cc(-c3n[nH]c4ccc(-c5n[nH]c(CN6CCOCC6)n5)cc34)ccc2c1 = 27 % of control
• CC(C)(C)Cc1nc(-c2ccc3[nH]nc(-c4ccc5cc(OCc6ccccn6)ccc5c4)c3c2)n[nH]1 = 57 % of control

query: Please give the documented Inhibitory activity (% of control), Lck(h) of O=C(NC1CCCC1)c1cccc(-c2n[nH]c3ccc(-c4nc[nH]n4)cc23)c1 [CC007, reference compound]
result: 56 % of control

query: Please look at this compound and report its Inhibitory activity (% of control), Lck(h): `CCN1CCC[C@H]1COc1ccc2cc(-c3n[nH]c4ccc(-c5nc(CC(C)(C)C)n[nH]5)cc34)ccc2c1`
result: 6 % of control

query: Input `CC(C)Cc1nc(-c2ccc3[nH]nc(-c4ccc5cc(OCCN6CCCC6)ccc5c4)c3c2)n[nH]1` , output reported Inhibitory activity (% of control), Lck(h).
result: 5 % of control

* * *

Reported values of Inhibitory activity (% of control), CaMKII(r) for individual entries
test system: CaMKII(r); assay: CaMKII(r) kinase assay; format: biochemical, rat; conditions: 3 μM; percent of control kinase activity

Here is how some compounds turned out for Inhibitory activity (% of control), CaMKII(r).
* COc1ccc2cc(-c3n[nH]c4ccc(-c5n[nH]c(CN6CCOCC6)n5)cc34)ccc2c1 | 64 % of control
* CCN1CCC[C@H]1COc1ccc2cc(-c3n[nH]c4ccc(-c5nc(CC(C)(C)C)n[nH]5)cc34)ccc2c1 | 4 % of control
* Fc1ccc(-c2n[nH]c3ccc(-c4n[nH]c(C5CCCC5)n4)cc23)cc1 [CC006, reference compound] | 82 % of control
* CC(C)(C)Cc1nc(-c2ccc3[nH]nc(-c4ccc5cc(OCc6ccccn6)ccc5c4)c3c2)n[nH]1 | 52 % of control
* CC(C)Cc1nc(-c2ccc3[nH]nc(-c4ccc5cc(OCCN6CCCC6)ccc5c4)c3c2)n[nH]1 | 26 % of control

Consider now this further compound.
query: Quote Inhibitory activity (% of control), CaMKII(r) reported for O=C(NC1CCCC1)c1cccc(-c2n[nH]c3ccc(-c4nc[nH]n4)cc23)c1 [CC007, reference compound] please.
result: 68 % of control

* * *

target: MAPK2(h) (Homo sapiens); assay: MAPK2(h) kinase assay; assay type: biochemical; settings: 3 μM; percent of control kinase activity
Sequence (P28482 whole entry): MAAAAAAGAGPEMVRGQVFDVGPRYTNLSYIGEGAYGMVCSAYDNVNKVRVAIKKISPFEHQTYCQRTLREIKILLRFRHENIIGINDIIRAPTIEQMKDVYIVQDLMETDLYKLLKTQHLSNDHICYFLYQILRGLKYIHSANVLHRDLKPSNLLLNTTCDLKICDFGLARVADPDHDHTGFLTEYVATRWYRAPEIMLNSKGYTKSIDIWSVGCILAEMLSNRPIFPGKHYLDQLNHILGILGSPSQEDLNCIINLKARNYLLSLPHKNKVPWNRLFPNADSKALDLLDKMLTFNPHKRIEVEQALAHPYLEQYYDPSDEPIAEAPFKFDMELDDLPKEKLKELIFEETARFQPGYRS
Recorded Inhibitory activity (% of control), MAPK2(h) values for a group of molecules are listed next.

query: Quick one: give measured Inhibitory activity (% of control), MAPK2(h) for `CCN1CCC[C@H]1COc1ccc2cc(-c3n[nH]c4ccc(-c5nc(CC(C)(C)C)n[nH]5)cc34)ccc2c1`
result: 2 % of control

query: Return Inhibitory activity (% of control), MAPK2(h) (reported value) for this molecule: `CC(C)(C)Cc1nc(-c2ccc3[nH]nc(-c4ccc5cc(OCc6ccccn6)ccc5c4)c3c2)n[nH]1`
result: 1 % of control

query: Please report Inhibitory activity (% of control), MAPK2(h) for the following molecule: `COc1ccc2cc(-c3n[nH]c4ccc(-c5n[nH]c(CN6CCOCC6)n5)cc34)ccc2c1`
result: 0 % of control

query: Assign Inhibitory activity (% of control), MAPK2(h) to the following record: O=C(NC1CCCC1)c1cccc(-c2n[nH]c3ccc(-c4nc[nH]n4)cc23)c1 [CC007, reference compound]
result: 3 % of control

query: Dear colleague, please send me the reported Inhibitory activity (% of control), MAPK2(h) for Fc1ccc(-c2n[nH]c3ccc(-c4n[nH]c(C5CCCC5)n4)cc23)cc1 [CC006, reference compound] when you can.
result: 3 % of control

query: Supply measured Inhibitory activity (% of control), MAPK2(h) of `CC(C)Cc1nc(-c2ccc3[nH]nc(-c4ccc5cc(OCCN6CCCC6)ccc5c4)c3c2)n[nH]1` in your reply.
result: 2 % of control
